Parameter: pIC50. Scope: all listed entries.
- measurement-target: human PAI-1 (Homo sapiens, UniProt P05121)
- Sequence (P05121 24-402): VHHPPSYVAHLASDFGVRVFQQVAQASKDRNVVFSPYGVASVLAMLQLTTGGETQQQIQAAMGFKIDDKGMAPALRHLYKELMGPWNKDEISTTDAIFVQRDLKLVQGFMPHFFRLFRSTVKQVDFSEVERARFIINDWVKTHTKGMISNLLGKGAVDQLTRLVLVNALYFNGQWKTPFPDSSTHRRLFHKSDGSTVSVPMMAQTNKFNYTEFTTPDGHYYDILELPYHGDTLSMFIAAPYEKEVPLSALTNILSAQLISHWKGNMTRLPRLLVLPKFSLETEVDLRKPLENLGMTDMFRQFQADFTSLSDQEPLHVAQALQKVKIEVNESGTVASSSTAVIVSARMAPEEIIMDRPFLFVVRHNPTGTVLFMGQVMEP
Lab note: report pIC50 as minus log10 of the concentration in molar units, number only.

Worked cases, answers included:
>>> measured_result("O=c1[nH]c(=O)n(Cc2cn(Cc3ccccc3)c3ccc(OCc4cccc(Cl)c4)cc23)o1 [Compound 9]")
4.58
>>> measured_result("O=c1[nH]c(=O)n(Cc2cn(Cc3ccccc3)c3ccc(OCc4cccc(C(F)(F)F)c4)cc23)o1 [Compound 10]")
5.03

Attention now shifts to the item below.
What reported pIC50 corresponds to CC(C)(C)c1ccc(COc2ccc3c(c2)c(Cn2oc(=O)[nH]c2=O)cn3Cc2ccccc2)cc1 [Compound 1] on human PAI-1 (Homo sapiens, UniProt P05121)?
4.86

====

- measurement-target: recombinant human plasminogen activator inhibitor-1 (PAI-1) (Homo sapiens, UniProt P05121)
- Construct: purchased Molecular Innovations, Royal Oak, Mich
- protocol-notes: Primary screen for the PAI-1 inhibition (chromogenic tPA activity, Spectrozyme-tPA)
- Type: biochemical
- condition-label: compound at 100 μM
property-measured: inhibition at 100 µM (%)
// note: answer is a bare numeric in %

>>> measured_result("O=c1[nH]c(=O)n(Cc2cccc(C#Cc3ccccc3)c2)o1 [Compound 60]")
38
>>> measured_result("O=c1[nH]c(=O)n(Cc2cn(Cc3ccccc3)c3ccc(OCc4cc(C(F)(F)F)cc(C(F)(F)F)c4)cc23)o1 [Compound 7]")
94
>>> measured_result("C#CCn1cc(Cn2oc(=O)[nH]c2=O)c2cc(OCc3ccccc3Cl)ccc21 [Compound 17]")
49
>>> measured_result("Cc1ccc(COc2cccc(-c3cccc(Cn4oc(=O)[nH]c4=O)c3)c2)cc1 [Compound 45]")
94
>>> measured_result("C#CCn1cc(Cn2oc(=O)[nH]c2=O)c2cc(OCc3ccc(C(C)(C)C)cc3)ccc21 [Compound 23]")
91
>>> measured_result("O=c1[nH]c(=O)n(Cc2cn(Cc3ccccc3)c3ccc(OCc4cccc(Cl)c4)cc23)o1 [Compound 9]")
92
>>> measured_result("O=c1[nH]c(=O)n(Cc2cn(Cc3ccccc3)c3ccc(OCc4ccc5ccccc5c4)cc23)o1 [Compound 22]")
92

In the following, a different compound is considered.
Could you share what inhibition at 100 µM was measured for COc1cc(Cn2oc(=O)[nH]c2=O)cc(OCc2cccc(Br)c2)c1OCc1cccc(Br)c1 [Compound 79] , tested on recombinant human plasminogen activator inhibitor-1 (PAI-1) (Homo sapiens, UniProt P05121)?
87

====

Let's look at some compounds and their measured inhibition at 100 µM.
- measurement-target: recombinant human plasminogen activator inhibitor-1 (PAI-1) (Homo sapiens)
- Construct: purchased Molecular Innovations, Royal Oak, Mich
- protocol-notes: Primary screen for the PAI-1 inhibition (chromogenic tPA activity, Spectrozyme-tPA)
- Assay type: biochemical
- condition-label: compound at 100 μM
- Method: Test compounds are dissolved in DMSO at a final concentration of 10 mM, then diluted 100× in physiologic buffer. […] Following the second incubation, Spectrozyme-tPA (American Diagnostica, Greenwich, Conn.), a chromogenic substrate for tPA, is added and absorbance read at 405 nm at 0 and 60 minutes. […]
A number alone suffices; assume %.

Consider the following illustrative entries.
>>> measured_result("O=c1[nH]c(=O)n(Cc2cccc(-c3cccc(OCc4cc(C(F)(F)F)cc(C(F)(F)F)c4)c3)c2)o1")
69
>>> measured_result("C=CCn1cc(Cn2oc(=O)[nH]c2=O)c2cc(OCc3ccc(C(C)(C)C)cc3)ccc21")
100
>>> measured_result("O=c1[nH]c(=O)n(Cc2cn(Cc3ccccc3)c3ccc(OCc4cccc(C(F)(F)F)c4)cc23)o1")
92

Could you now consider this next compound?
Query inhibition at 100 µM on recombinant human plasminogen activator inhibitor-1 (PAI-1) (Homo sapiens) for C=CCn1cc(Cn2oc(=O)[nH]c2=O)c2cc(OCc3cccc(Br)c3)ccc21
100
